Tested on: CAKI-1
assay.overview: NCI tumour cell line growth inhibition, 48 h
Where a name gives a salt, the structure may show the parent alone. Calls of active or inactive are those of the source. Rule as the data show it: active = GI50 up to about 1.1 µM and inactive = higher.
Respond only with the outcome that fits, drawn from active, inactive

Please state the recorded outcome for this compound: O=[N+]([O-])c1ccc(C2=Nn3cnnc3SC2)o1 inactive

Please state the recorded outcome for this compound: CC(=O)/N=C1/N(/C=C2\C(=O)Oc3ccccc3C2=O)C(=O)/C(=C/c2ccccc2Cl)N1C inactive

Please state the recorded outcome for this compound: Cc1c(N)nc(C(CC(N)=O)NCC(N)C(N)=O)nc1C(=O)NC(C(=O)NC(C)C(O)C(C)C(=O)NC(C(=O)NCCc1nc(-c2nc(C(=O)NCCCNCCCCN)cs2)cs1)C(C)O)C(OC1OC(CO)C(O)C(O)C1OC1OC(CO)C(O)C(OC(N)=O)C1O)c1c[nH]cn1 (centres undefined) active

Please state the recorded outcome for this compound: CCOc1ccc(N/C(=C(/C(Cl)=C(/Cl)N2CCCCC2)[N+](=O)[O-])n2nnc3ccccc32)cc1 inactive

Please state the recorded outcome for this compound: Cc1cccc(-n2c(=S)[nH]c3c(sc(=O)n3-c3ccccc3C)c2=O)c1 inactive

Please state the recorded outcome for this compound: CSC(=S)N/N=C(\C)c1cccc(C)n1 active

Please state the recorded outcome for this compound: c1ccc(-c2ccc(/N=N/N3CCCC3)cc2)cc1 inactive

Please state the recorded outcome for this compound: O=C(O)CN1CCNCCN(CC(=O)O)CC1 inactive

Please state the recorded outcome for this compound: NCCCCN [PUTRESCINE HYDROCHLORIDE] inactive

* * *

System: LOX IMVI
assay.overview: NCI tumour cell line growth inhibition, 48 h
Calls of active or inactive are those of the source. Rule as the data show it: active = GI50 up to about 1.1 µM and inactive = higher.
measure: GI50

What does the record list as GI50 for COc1ccc(/C=N/NC(=O)c2ccccc2Nc2ccccc2C(=O)N/N=C/c2ccc(OC)cc2)cc1 ? > 100 µM (inactive)

What does the record list as GI50 for CNC1=Nc2ccc(Cl)cc2C(c2ccccc2)=NN1C ? 60.4 µM (inactive)

What does the record list as GI50 for COc1cc([N+](=O)[O-])c(S(=O)(=O)O)cc1N ? > 100 µM (inactive)

What does the record list as GI50 for CCOC(=O)c1[nH]c(CN(C)Cc2[nH]c(C(=O)OCC)c(C)c2C(=O)OCc2ccccc2)c(C(=O)OCc2ccccc2)c1C ? 4.75 µM (inactive)

What does the record list as GI50 for N#CC(c1nc2ccccc2nc1Cl)S(=O)(=O)c1ccccc1 (stereo not given) ? 43.5 µM (inactive)

* * *

Tested on: NCI/ADR-RES
assay.overview: NCI tumour cell line growth inhibition, 48 h
Activity calls are given as the source filed them. No stated cut-off is given here; in the data, active = GI50 up to about 1.1 µM and inactive = higher.
I'd be grateful if you could share measured GI50 for these entries.

What does the record list as GI50 for N=C(N)NS(=O)(=O)c1ccc(NC(=O)c2ccc3nc4ccccc4c(Nc4ccc(S(=O)(=O)N=C(N)N)cc4)c3c2)cc1 ? > 100 µM (inactive)

What does the record list as GI50 for CCC1CCC2c3c([nH]c4ccc(C)cc34)C3C(=O)N(N(C)C)C(=O)C3C2C1 (stereo not given) ? 4.35 µM (inactive)

What does the record list as GI50 for COc1cc2c(cc1OC)C(N)CC2=O (stereo not given) ? > 100 µM (inactive)

What does the record list as GI50 for C=CCOC1=C(OC(C)=O)C(=O)OC1C1COC(C)(C)O1 (stereo not given) ? > 61.5 µM (inactive)

What does the record list as GI50 for CC(NC(=O)c1ccc(NP(=O)(OCc2ccc([N+](=O)[O-])o2)N(C)CCCCCl)cc1)c1ccc(OCC2CCCCC2)c(C(N)=O)c1 (stereo not given) ? 61.8 µM (inactive)

What does the record list as GI50 for O=C(/C=C/NC(=O)OCc1ccccc1)OCc1ccccc1 ? > 100 µM (inactive)

What does the record list as GI50 for Cc1cc(O)c(C(O)c2ccccn2)cc1O (stereo not given) ? 27.5 µM (inactive)

What does the record list as GI50 for CCOC(=O)C1CC(C(=O)c2ccccc2)N2c3ccccc3-c3ccccc3C12 (stereo not given) ? 43.2 µM (inactive)

What does the record list as GI50 for Cc1ccccc1N/C(=C(/C(Cl)=C(Cl)Cl)[N+](=O)[O-])n1nnc2ccccc21 ? 18.2 µM (inactive)

What does the record list as GI50 for OCC1OC(n2cnc3c(Cl)nc(Nc4ccccc4)nc32)CC1O (stereo not given) ? > 100 µM (inactive)

These entries and their values trace back to ChEMBL document CHEMBL1201862.
